Assay: basal MM1S mitochondrial membrane potential changes, profiling panel, cell-based, JC-1 fluorescence, 24 h, 100 nL compound (AID 1170); also: test concentration not given here
Conditions: higher = more signal
Assay endpoint: z-score

# Compound, Assay endpoint, Number
data = [
    ("C#CCOc1ccc(C[C@H]2C(=O)O[C@H](Cc3ccccc3)[C@H](/C=C/C3CC3)N2CC#C)cc1", "z-score", 0.0151),
    ("CC(C)C[C@@H]1NC(=O)[C@@H]2C[C@H](C(=O)NCCCCCNC(=O)CS)[C@H](c3cccc(OCCO)c3)N2C1=O", "z-score", 0.072),
    ("C[C@@H](OCc1ccccc1)C1NC(=O)[C@@]23C(=O)N[C@@H](Cc4ccccc4)C2[C@H](C)[C@@]2(C)O[C@H]2C3/C=C/C/C=C\\CNC(=O)[C@@H]2CCCN2C1=O (some centres undefined)", "z-score", 1.19),
    ("CC(C)(C)OC(=O)CC[C@@]12N=C(c3ccc(OCCCO)cc3)O[C@@H]1c1ccccc1CN(Cc1ccccc1)C2=O", "z-score", -1.07),
]
